The origin of these recorded values is ChEMBL document CHEMBL5291721.

Dear all, this message contains AC50 results, target or system Histamine H1 receptor (Homo sapiens, UniProt P35367). Note: assay procedure not described here.

compound | AC50
C=CC1=C(C(=O)O)N2C(=O)[C@@H](NC(=O)/C(=N\OCC(=O)O)c3csc(N)n3)[C@H]2SC1 [CEFIXIME] | > 30 µM
O=C(Nc1c(Cl)cncc1Cl)c1ccc(OC(F)F)c(OCC2CC2)c1 [ROFLUMILAST] | > 30 µM
Cc1ccc2c(-c3ccccc3)nc(=O)n(C(C)C)c2c1 [PROQUAZONE] | > 30 µM
CC(=O)/N=c1/sc(S(N)(=O)=O)nn1C [METHAZOLAMIDE] | > 10 µM
CN1c2ccccc2C(NCCCCCCC(=O)O)c2ccc(Cl)cc2S1(=O)=O (centres undefined) [TIANEPTINE] | > 30 µM
CC(C)N(CCCCOCC(=O)NS(C)(=O)=O)c1cnc(-c2ccccc2)c(-c2ccccc2)n1 [SELEXIPAG] | > 30 µM
CC(=O)OCC[N+](C)(C)C [ACETYLCHOLINE] | > 10 µM
N#C[C@@H]1CCCN1C(=O)CNC12CC3CC(CC(O)(C3)C1)C2 [VILDAGLIPTIN] | > 30 µM

Alright, here's another compound for you.
Query block: Return AC50 measured with Histamine H1 receptor (Homo sapiens, UniProt P35367) given this compound: O=C(O)c1ccccc1OP(=O)(O)O [FOSFOSAL]
Sequence (P35367 whole entry): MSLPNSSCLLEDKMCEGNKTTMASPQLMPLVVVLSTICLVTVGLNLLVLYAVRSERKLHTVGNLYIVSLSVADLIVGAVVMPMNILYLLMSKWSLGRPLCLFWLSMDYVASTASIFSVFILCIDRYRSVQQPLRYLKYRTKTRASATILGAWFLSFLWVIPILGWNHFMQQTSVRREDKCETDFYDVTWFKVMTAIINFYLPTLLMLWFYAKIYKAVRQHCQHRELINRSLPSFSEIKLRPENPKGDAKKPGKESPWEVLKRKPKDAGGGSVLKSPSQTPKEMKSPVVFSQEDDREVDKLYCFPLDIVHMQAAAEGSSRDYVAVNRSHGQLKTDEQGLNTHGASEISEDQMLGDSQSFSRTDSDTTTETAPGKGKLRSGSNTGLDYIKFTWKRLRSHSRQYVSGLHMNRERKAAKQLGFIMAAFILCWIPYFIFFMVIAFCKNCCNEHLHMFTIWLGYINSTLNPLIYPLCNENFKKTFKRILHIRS
Result block: > 30 µM
